Molecular target: Estrogen Receptor-Alpha (ERα) (Homo sapiens, UniProt P03372)
Construct: endogenous in cells; host or cells: MCF-7 (MCF7) cells
Sequence (P03372 1-595): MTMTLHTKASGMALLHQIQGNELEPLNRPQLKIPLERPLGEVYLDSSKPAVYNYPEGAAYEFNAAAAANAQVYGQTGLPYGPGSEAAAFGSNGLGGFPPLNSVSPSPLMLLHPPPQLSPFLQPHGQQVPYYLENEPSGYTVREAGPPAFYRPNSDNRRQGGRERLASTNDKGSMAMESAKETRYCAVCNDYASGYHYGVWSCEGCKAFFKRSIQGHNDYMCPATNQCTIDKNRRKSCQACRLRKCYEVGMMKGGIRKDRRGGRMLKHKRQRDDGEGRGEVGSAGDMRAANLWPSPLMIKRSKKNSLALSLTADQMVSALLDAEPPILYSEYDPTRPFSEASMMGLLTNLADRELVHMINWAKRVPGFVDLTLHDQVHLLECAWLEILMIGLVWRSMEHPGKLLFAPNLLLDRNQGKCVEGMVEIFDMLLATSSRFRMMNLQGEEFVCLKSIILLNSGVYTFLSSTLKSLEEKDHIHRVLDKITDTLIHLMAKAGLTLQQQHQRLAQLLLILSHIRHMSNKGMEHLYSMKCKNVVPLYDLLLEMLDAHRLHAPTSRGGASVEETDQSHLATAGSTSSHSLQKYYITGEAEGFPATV
Experiment: Estrogen Receptor-Alpha (ERα) degradation assay in MCF-7 cells (western blot / In-Cell Western)
Format: cell-based
Settings: read-out: ER DC50
Listed here: items and their measured DC50.

A selection of reference data follows.
[
  {
    "COMPOUND": "COc1cc(N2CCN(CCC3CCN(c4ccc([C@@H]5c6ccc(O)cc6CC[C@@H]5c5ccccc5)cc4)CC3)CC2)cc2c1C(=O)N(C1CCC(=O)NC1=O)C2 (some centres unmarked)",
    "MEASURED_ON": "Estrogen Receptor-Alpha (ERα) (Homo sapiens, UniProt P03372)",
    "ENDPOINT_RESULT": "1 to 10 nM"
  },
  {
    "COMPOUND": "COc1cc(N2CCN(CCC3CCN(c4ccc([C@H]5c6ccc(O)cc6CC[C@H]5c5ccccc5)cc4)CC3)CC2)cc2c1C(=O)N(C1CCC(=O)NC1=O)C2 (some centres unmarked)",
    "MEASURED_ON": "Estrogen Receptor-Alpha (ERα) (Homo sapiens, UniProt P03372)",
    "ENDPOINT_RESULT": "≥ 100 nM"
  }
]

Q. Record request: DC50 value, item COc1c(N2CCN(CCCCCOc3ccc([C@@H]4c5ccc(O)cc5CC[C@@H]4c4ccccc4)cc3)CC2)ccc2c1CN(C1CCC(=O)NC1=O)C2=O (some centres unmarked)
A. < 1 nM

====

Target: BRaf (Homo sapiens, UniProt P15056, V600E)
Construct: endogenous in cells; host or cells: A375 cells
Sequence (P15056 whole entry V600E): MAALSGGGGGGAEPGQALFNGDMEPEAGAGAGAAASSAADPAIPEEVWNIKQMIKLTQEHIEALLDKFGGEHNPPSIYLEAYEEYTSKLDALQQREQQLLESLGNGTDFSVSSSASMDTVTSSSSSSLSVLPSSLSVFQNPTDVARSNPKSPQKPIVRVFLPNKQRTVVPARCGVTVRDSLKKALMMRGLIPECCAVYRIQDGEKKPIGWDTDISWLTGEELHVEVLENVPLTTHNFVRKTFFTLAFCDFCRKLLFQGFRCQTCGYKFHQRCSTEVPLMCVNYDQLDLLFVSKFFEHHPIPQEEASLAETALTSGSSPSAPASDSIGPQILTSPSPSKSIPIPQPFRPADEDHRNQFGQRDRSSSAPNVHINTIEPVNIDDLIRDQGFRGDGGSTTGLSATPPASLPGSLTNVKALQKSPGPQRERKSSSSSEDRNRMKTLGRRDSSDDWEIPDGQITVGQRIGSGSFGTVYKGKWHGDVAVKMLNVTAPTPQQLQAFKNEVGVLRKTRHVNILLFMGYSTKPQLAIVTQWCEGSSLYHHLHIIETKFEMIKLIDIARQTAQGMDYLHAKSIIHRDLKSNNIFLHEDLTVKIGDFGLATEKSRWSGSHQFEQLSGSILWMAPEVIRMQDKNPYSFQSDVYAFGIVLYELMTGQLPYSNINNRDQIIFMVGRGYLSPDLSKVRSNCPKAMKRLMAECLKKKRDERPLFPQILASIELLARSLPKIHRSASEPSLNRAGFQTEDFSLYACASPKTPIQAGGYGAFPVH
Sequence (Q96SW2 whole entry partner): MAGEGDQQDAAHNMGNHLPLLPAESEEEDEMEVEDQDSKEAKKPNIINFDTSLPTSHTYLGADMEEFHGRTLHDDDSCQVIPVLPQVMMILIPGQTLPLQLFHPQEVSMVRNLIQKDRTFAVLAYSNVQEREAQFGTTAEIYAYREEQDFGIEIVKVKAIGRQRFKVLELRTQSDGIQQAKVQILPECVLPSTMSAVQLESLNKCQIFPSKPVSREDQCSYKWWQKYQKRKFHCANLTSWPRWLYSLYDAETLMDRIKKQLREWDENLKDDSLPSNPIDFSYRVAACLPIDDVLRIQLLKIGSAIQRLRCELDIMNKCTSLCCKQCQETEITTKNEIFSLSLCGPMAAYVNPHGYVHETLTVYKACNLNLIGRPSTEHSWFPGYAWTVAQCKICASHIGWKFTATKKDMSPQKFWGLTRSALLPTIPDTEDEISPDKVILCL
Experiment: BRaf protein degradation assay in A375 cells (western blot / In-Cell Western)
Assay type: cell-based
Conditions: A-375
MEASURED_METRIC: Dmax

A selection of reference data follows.
[
  {
    "COMPOUND": "Cc1c(N2CCN(c3ccc(-n4cc(-c5ccc6c(c5)CC/C6=N\\O)c(-c5ccncc5)n4)cc3)CC2)ccc2c1C(=O)N(C1CCC(=O)NC1=O)C2=O (stereo not shown) [compound 42]",
    "ENDPOINT_RESULT": "50 to 75%"
  },
  {
    "COMPOUND": "O=C1CCC(N2C(=O)c3cc(N4CCN(c5ccc(-n6cc(-c7ccc8c(c7)CC/C8=N\\O)c(-c7ccncc7)n6)cc5)CC4)cc(-c4ccccc4)c3C2=O)C(=O)N1 (stereo not shown) [compound 39]",
    "ENDPOINT_RESULT": "50 to 75%"
  },
  {
    "COMPOUND": "O=C1CCC(N2C(=O)c3ccc(N4CCN(c5ccc(-n6cc(-c7ccc8c(c7)CC/C8=N\\O)c(-c7ccncc7)n6)cc5)CC4)c(-c4ccccc4)c3C2=O)C(=O)N1 (stereo not shown) [compound 41]",
    "ENDPOINT_RESULT": "≥ 75%"
  }
]

Q. Record request: Dmax value, item Cc1cc2c(cc1N1CCN(c3ccc(-n4cc(-c5ccc6c(c5)CC/C6=N\O)c(-c5ccncc5)n4)cc3)CC1)C(=O)N(C1CCC(=O)NC1=O)C2=O (stereo not shown) [compound 40]
A. ≥ 75%
